B1: FAM9B (parent)
chain: EDLTAKRKRMKMDKTCSKTKNKSK

Variants of: B1
Assay: protein stability index of a GFP-peptide fusion (GPS, HEK-293T) (PSI 1-6); higher = more stable;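 further: lentivirally expressed fusions sorted by FACS into six bins by GFP to DsRed ratio, PSI derived from sequencing read proportions per bin multiplied by bin number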
Details: c terminus: a fixed tail appended
Quantity Measured: protein stability index
Please give only the number in your answer, with no unit.

Ask | Dear colleague, please send me the reported protein stability index for "K20T" when you can.
Reply | 5.25

Ask | Dear colleague, please send me the reported protein stability index for "K11V" when you can.
Reply | 5.08

Ask | Dear colleague, please send me the reported protein stability index for "K20Y" when you can.
Reply | 4.43

Ask | Dear colleague, please send me the reported protein stability index for "T15R" when you can.
Reply | 4.88

Ask | Dear colleague, please send me the reported protein stability index for "A5N" when you can.
Reply | 4.33

Ask | Dear colleague, please send me the reported protein stability index for "K24T" when you can.
Reply | 5.15

Ask | Dear colleague, please send me the reported protein stability index for "S23L" when you can.
Reply | 4.76

Ask | Dear colleague, please send me the reported protein stability index for "K8L" when you can.
Reply | 4.38

Ask | Dear colleague, please send me the reported protein stability index for "R9Q" when you can.
Reply | 5.58

Ask | Dear colleague, please send me the reported protein stability index for "L3F" when you can.
Reply | 4.98

Ask | Dear colleague, please send me the reported protein stability index for "T15A" when you can.
Reply | 5

Ask | Dear colleague, please send me the reported protein stability index for "M10V" when you can.
Reply | 5.12

Ask | Dear colleague, please send me the reported protein stability index for "D13Y" when you can.
Reply | 5.14

Ask | Dear colleague, please send me the reported protein stability index for "K20E" when you can.
Reply | 5.07

Ask | Dear colleague, please send me the reported protein stability index for "L3N" when you can.
Reply | 5.15

Ask | Dear colleague, please send me the reported protein stability index for "K14L" when you can.
Reply | 4.83

Ask | Dear colleague, please send me the reported protein stability index for "D13M" when you can.
Reply | 3.91

Ask | Dear colleague, please send me the reported protein stability index for "R7V" when you can.
Reply | 4.87

Ask | Dear colleague, please send me the reported protein stability index for "E1I" when you can.
Reply | 4.08

Ask | Dear colleague, please send me the reported protein stability index for "R9F" when you can.
Reply | 5.14

Ask | Dear colleague, please send me the reported protein stability index for "T4I" when you can.
Reply | 4.58

Ask | Dear colleague, please send me the reported protein stability index for "A5P" when you can.
Reply | 4.92

Ask | Dear colleague, please send me the reported protein stability index for "K20A" when you can.
Reply | 4.94

Ask | Dear colleague, please send me the reported protein stability index for "M10D" when you can.
Reply | 5.29

Ask | Dear colleague, please send me the reported protein stability index for "D13C" when you can.
Reply | 4.33

Ask | Dear colleague, please send me the reported protein stability index for "T4K" when you can.
Reply | 5.54

Ask | Dear colleague, please send me the reported protein stability index for "D2V" when you can.
Reply | 4.86

Ask | Dear colleague, please send me the reported protein stability index for "C16T" when you can.
Reply | 5.63

Ask | Dear colleague, please send me the reported protein stability index for "R7H" when you can.
Reply | 4.95

Ask | Dear colleague, please send me the reported protein stability index for "S23R" when you can.
Reply | 5.24

Ask | Dear colleague, please send me the reported protein stability index for "T4Y" when you can.
Reply | 4.21

Ask | Dear colleague, please send me the reported protein stability index for "K11N" when you can.
Reply | 4.45

Ask | Dear colleague, please send me the reported protein stability index for "M10C" when you can.
Reply | 5.02

Ask | Dear colleague, please send me the reported protein stability index for "K18V" when you can.
Reply | 4.75

Ask | Dear colleague, please send me the reported protein stability index for "D13L" when you can.
Reply | 4.77

Ask | Dear colleague, please send me the reported protein stability index for "D13F" when you can.
Reply | 4.26

Ask | Dear colleague, please send me the reported protein stability index for "K11Y" when you can.
Reply | 4.26

Ask | Dear colleague, please send me the reported protein stability index for "R7E" when you can.
Reply | 5.45

Ask | Dear colleague, please send me the reported protein stability index for "T15Q" when you can.
Reply | 5.42

Ask | Dear colleague, please send me the reported protein stability index for "K14Y" when you can.
Reply | 5.22

Ask | Dear colleague, please send me the reported protein stability index for "C16Y" when you can.
Reply | 5.54

Ask | Dear colleague, please send me the reported protein stability index for "K18L" when you can.
Reply | 4.75

Ask | Dear colleague, please send me the reported protein stability index for "T19C" when you can.
Reply | 4.99

Ask | Dear colleague, please send me the reported protein stability index for "L3Y" when you can.
Reply | 5.23

Ask | Dear colleague, please send me the reported protein stability index for "T4F" when you can.
Reply | 4.72

Ask | Dear colleague, please send me the reported protein stability index for "K22T" when you can.
Reply | 5.11
